Measurement protocol: Rodent pharmacokinetics (rat PK)
Type: in vivo
Run conditions: po, dosed intravenously or orally by gavage, plasma, read-out: F % (bioavailability)
Value type: bioavailability

Here is how some compounds turned out for bioavailability.
{"Compound": "Cn1c(=O)n(C2CCC(=O)NC2=O)c2cccc([C@@H]3CCN(C[C@H]4CC[C@H](c5cn6cc(NC(=O)c7cccc(C(F)(F)F)c7)c(C(C)(C)O)cc6n5)CC4)C[C@H]3F)c21 (some centres unmarked)", "bioavailability": "≤ 5%"}
{"Compound": "Cn1c(=O)n(C2CCC(=O)NC2=O)c2cccc([C@@H]3CCN(C[C@H]4CC[C@H](n5cc6cc(NC(=O)c7cncc(OC(F)F)n7)ncc6n5)CC4)C[C@H]3F)c21 (some centres unmarked)", "bioavailability": "≤ 5%"}
{"Compound": "Cn1c(=O)n([C@@H]2CCC(=O)NC2=O)c2cccc([C@@H]3CCN(C[C@H]4CC[C@H](n5cc6cc(NC(=O)c7cncc(C(F)(F)F)n7)ccc6n5)CC4)C[C@H]3F)c21 (single isomer, unassigned)", "bioavailability": "≤ 5%"}
{"Compound": "Cn1c(=O)n(C2CCC(=O)NC2=O)c2cccc([C@@H]3CCN(C[C@H]4CC[C@H](c5nc6cc(C(C)(C)O)c(NC(=O)c7cccc(C(F)(F)F)n7)cc6o5)CC4)C[C@H]3F)c21 (some centres unmarked)", "bioavailability": "≥ 5%"}

Proceed to the following item.
What value of bioavailability has been recorded for this entry: Cn1c(=O)n(C2CCC(=O)NC2=O)c2cccc(N3CC4(CCN(C[C@H]5CC[C@H](n6cc7cc(NC(=O)c8cccc(C(F)(F)F)c8)ncc7n6)CC5)CC4(F)F)C3)c21 (some centres unmarked)
≤ 5%
